// values below are reported normalized growth
assay: chemical genetic growth profiling, strain panel (AID 1159580);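 also: tested at 20 µM; growth read once vehicle control cultures reached saturation at 30 °C; 1 = growth at the plate median or of vehicle wells; lower values mean less growth of the strain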; conditions: S. cerevisiae deletion strains, growth OD, locus YPR163C, strain tif3, hits give low values
Screen size: about 5,500 compounds; about 2,000 (36%) were called active. Another 18% or so got no clear call; they are omitted. This is one part of the list.
Lab note: jot the number down without any unit.

Examples with their reported normalized growth follow.
C=C1CCC2[C@](C)(CO)[C@H](O)CC[C@@]2(C)[C@@H]1C/C=C1/C(=O)OC[C@H]1O (stereo not given in full)    1.04
O=C1NCC2(CCN(CCc3ccccc3)CC2)O1    1.01
Nc1nc(=S)c2[nH]cnc2[nH]1    1

Next compound, please.
Problem: Need normalized growth, item "COc1ccc(C(=O)O)cc1OC"
Solution: 1.01
